Target system: mGlu4 receptor (Rattus norvegicus)
Method summary: mGlu4 receptor test at different doses (1 nM to 1 mM) to determine EC50
Assay type: cell-based
pEC50: −log10 of the molar value.
Each entry below lists one item and its recorded pEC50 value.

Molecule: N[C@]1(C(=O)O)C[C@@]1(F)C(O)P(=O)(O)O (mixture of isomers) [cis-I-3]
pEC50: 4.56

Molecule: NC1(C(=O)O)CC1(F)CP(=O)(O)O (racemic) [cis-I-4]
pEC50: 6.47

----------
Target system: mGlu4 receptor (Rattus norvegicus, UniProt P31423)
Sequence (P31423 33-912): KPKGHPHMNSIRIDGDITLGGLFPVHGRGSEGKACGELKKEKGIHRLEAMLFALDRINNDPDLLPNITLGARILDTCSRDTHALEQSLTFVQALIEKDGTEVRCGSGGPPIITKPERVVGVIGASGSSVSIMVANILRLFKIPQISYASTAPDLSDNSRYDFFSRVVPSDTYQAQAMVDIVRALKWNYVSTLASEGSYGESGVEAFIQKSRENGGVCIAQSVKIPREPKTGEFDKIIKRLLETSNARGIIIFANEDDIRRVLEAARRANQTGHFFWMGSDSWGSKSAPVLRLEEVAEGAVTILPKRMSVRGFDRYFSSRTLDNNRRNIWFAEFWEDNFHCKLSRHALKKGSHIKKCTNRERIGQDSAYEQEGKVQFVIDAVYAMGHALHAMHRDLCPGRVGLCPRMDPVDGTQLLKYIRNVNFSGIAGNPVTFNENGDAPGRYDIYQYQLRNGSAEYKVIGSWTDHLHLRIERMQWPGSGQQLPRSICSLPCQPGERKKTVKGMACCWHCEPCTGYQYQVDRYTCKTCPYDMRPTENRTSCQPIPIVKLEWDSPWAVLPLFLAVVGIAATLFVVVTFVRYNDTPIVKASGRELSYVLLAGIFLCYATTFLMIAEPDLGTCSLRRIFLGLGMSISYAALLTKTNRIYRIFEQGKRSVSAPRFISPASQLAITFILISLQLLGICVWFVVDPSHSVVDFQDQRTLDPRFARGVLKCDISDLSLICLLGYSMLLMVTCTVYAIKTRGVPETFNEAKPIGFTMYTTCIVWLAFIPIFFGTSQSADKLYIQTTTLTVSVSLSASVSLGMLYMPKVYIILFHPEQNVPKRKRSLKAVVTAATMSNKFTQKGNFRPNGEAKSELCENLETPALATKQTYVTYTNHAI
Method summary: mGlu4 receptor test at different doses (1 nM to 1 mM) to determine EC50
Type: cell-based
Measurement parameters: mGlu4 receptor; doses between 1 nM and 1 mM; protocol of Selvam et al. J. Med. Chem. 2007, 50, 4656-4664; read-out: EC50
pEC50: −log10 of the molar value.
Observed property: pEC50

Molecule: NC1(C(=O)O)CC1(F)CS(=O)(=O)O (racemic) [cis-I-6]
Measured: 4.07

Just for reference, patent US20120190648A1 is where these values come from.
